These measurements were taken from paper PMC5623949.

Listed here: items and their measured viability at 10 µM.
Assay: in vitro
Parameters: cytotoxicity, per cent cell growth of A549 cells
Settings: human, a549 cells; read-out: % cell growth A549 at 10uM

Mol Smiles: Nc1nnc(CCC(=O)c2cccs2)s1
Measurement Unit: %
viability at 10 µM: 131
//
Mol Smiles: Nc1nnc(N)s1
Measurement Unit: %
viability at 10 µM: 113
//
Mol Smiles: COc1cccc(OC)c1-c1nnc(N)s1
Measurement Unit: %
viability at 10 µM: 150
//
Mol Smiles: COc1cc(CNc2nnc(N)s2)cc(OC)c1OC
Measurement Unit: %
viability at 10 µM: 116
//
Mol Smiles: Nc1nnc(N2CCC(Cc3ccccc3)CC2)s1
Measurement Unit: %
viability at 10 µM: 111
//
Mol Smiles: Nc1nnc(-c2cccc(Br)c2)s1
Measurement Unit: %
viability at 10 µM: 135
//
Mol Smiles: COc1cc(-c2nnc(N)s2)cc(OC)c1OC
Measurement Unit: %
viability at 10 µM: 114
//
Mol Smiles: Nc1nnc(Cc2cccs2)s1
Measurement Unit: %
viability at 10 µM: 112
//
Mol Smiles: NCc1ccc(-c2nnc(N)s2)cc1
Measurement Unit: %
viability at 10 µM: 114
//
Mol Smiles: Nc1nnc(-c2cccc(-c3ccccc3)c2)s1
Measurement Unit: %
viability at 10 µM: 115
//
Mol Smiles: Nc1nnc(NCc2ccc(F)cc2)s1
Measurement Unit: %
viability at 10 µM: 110
//
Mol Smiles: Nc1nnc(Cc2ccccc2)s1
Measurement Unit: %
viability at 10 µM: 125
//
Mol Smiles: Nc1nnc(-c2cccc(-c3ccc4c(c3)OCO4)c2)s1
Measurement Unit: %
viability at 10 µM: 116
